Would you mind telling me the reported koff of each entry?
TGT: T1, pCD163-SRCR1-9-huFc (porcine, UniProt Q2VL90 47-1028, limits assumed)
T1 construct: also called pCD163:SRCR1-9-Fc; pCD163SRCR1-9-Fc; not shown: human Fc (huFc)
T1 sequence: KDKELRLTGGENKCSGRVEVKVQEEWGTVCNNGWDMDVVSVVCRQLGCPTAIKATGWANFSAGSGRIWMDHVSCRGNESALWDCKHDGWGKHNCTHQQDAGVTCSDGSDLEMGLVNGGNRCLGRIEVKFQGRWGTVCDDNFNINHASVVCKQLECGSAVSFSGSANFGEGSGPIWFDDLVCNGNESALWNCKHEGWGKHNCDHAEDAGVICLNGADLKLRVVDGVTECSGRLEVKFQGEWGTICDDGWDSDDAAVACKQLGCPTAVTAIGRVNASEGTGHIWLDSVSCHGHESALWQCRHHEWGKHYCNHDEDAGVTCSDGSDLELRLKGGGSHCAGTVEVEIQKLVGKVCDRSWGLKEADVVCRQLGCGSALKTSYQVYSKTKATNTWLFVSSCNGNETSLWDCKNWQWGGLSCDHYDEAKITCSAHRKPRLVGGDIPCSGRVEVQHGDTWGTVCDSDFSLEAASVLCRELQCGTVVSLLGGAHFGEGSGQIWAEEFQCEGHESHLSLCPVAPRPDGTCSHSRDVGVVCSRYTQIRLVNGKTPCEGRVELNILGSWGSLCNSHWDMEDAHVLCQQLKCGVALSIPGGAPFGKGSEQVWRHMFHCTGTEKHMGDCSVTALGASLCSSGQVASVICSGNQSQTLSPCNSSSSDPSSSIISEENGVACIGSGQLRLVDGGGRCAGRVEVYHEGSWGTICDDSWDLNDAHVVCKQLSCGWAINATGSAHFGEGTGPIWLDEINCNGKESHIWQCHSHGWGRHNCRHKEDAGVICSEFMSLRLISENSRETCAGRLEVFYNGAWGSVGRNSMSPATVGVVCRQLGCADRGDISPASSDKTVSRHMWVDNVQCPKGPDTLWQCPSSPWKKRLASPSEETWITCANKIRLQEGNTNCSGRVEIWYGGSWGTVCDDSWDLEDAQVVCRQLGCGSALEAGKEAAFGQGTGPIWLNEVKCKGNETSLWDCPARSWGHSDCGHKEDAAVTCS
EXPERIMENT_SUMMARY: SPR (Biacore 3000), antigen amine-coupled on CM5, VHH injected, pH 7.4
Respond with the bare value in s⁻¹.

VHH 023 (4E10) (VHH, Llama single domain antibody; also called 70(#23); VHCDR3 70(#23); not shown: tags: c-myc tag in periplasmic extract (ELISA, FACS); FLAG and His tags in purified VHH (SPR, infection assays)) VHH: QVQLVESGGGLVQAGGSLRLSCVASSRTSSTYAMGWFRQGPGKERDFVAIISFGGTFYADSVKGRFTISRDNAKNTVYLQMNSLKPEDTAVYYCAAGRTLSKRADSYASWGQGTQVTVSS yielded koff of 0.00927

VHH 012 (2C07) (VHH, Llama single domain antibody; also called 41(#12); VHCDR3 41(#12); not shown: tags: c-myc tag in periplasmic extract (ELISA, FACS); FLAG and His tags in purified VHH (SPR, infection assays)) VHH: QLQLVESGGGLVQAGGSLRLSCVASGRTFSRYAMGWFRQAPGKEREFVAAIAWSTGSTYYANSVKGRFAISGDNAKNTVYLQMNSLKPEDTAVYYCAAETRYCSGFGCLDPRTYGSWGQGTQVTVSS yielded koff of 0.00617

VHH 015 (2G01) (VHH, Llama single domain antibody; also called 150(#15); VHCDR3 150(#15); not shown: tags: c-myc tag in periplasmic extract (ELISA, FACS); FLAG and His tags in purified VHH (SPR, infection assays)) VHH: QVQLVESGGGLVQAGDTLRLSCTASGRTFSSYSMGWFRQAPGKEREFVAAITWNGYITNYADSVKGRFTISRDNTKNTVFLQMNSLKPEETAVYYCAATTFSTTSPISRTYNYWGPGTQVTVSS yielded koff of 0.00583

VHH 020 (3H11) (VHH, Llama single domain antibody; also called 48(#20); VHCDR3 48(#20); not shown: tags: c-myc tag in periplasmic extract (ELISA, FACS); FLAG and His tags in purified VHH (SPR, infection assays)) VHH: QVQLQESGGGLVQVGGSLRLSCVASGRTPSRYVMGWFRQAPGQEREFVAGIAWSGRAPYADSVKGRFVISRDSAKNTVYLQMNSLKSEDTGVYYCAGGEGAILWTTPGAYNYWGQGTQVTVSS yielded koff of 0.00865

These measurements were taken from patent US20230203185A1.
